# System: ryegrass, Italian
# Protocol Details: Test C preemergence
# Format: in vivo, Lolium multiflorum
# Stated Conditions: 500 g ai/ha, preemergence; 0 to 100 scale (0 no effect, 100 complete control)
Reported Metric: Ryegrass, Italian plant response rating
Please give the numeric answer without any surrounding text.

Lookup: For the molecule shown here, CCOC[C@H]1CN(C(=O)c2cc(-n3cnc(C4CCC4)n3)cc3c2OCCO3)c2cccc(Cl)c2O1 , give the reported Ryegrass, Italian plant response rating.
Found: 80

Lookup: Proceed to CCOC[C@H]1CN(C(=O)c2cc(-n3cnc(C(C)C)n3)cc3c2OCO3)c2cccc(Cl)c2O1
Found: 90

Lookup: Proceed to CCc1cc(C(=O)N2C[C@H](C)Oc3c(Cl)cccc32)cc(-n2cncn2)c1
Found: 90

Lookup: Proceed to Cc1ccc(-n2cnc(C(C)C)n2)cc1C(=O)N1CC(C(F)(F)F)Oc2c(Cl)cccc21 (centres unmarked)
Found: 100

Lookup: Proceed to Cc1ncn(-c2ccc(F)c(C(=O)N3C[C@H](C)Oc4c(C)cccc43)c2)n1
Found: 80

Lookup: Proceed to CCOC[C@H]1CN(C(=O)c2cc(-n3cnc(CC)n3)ccc2C)c2cccc(Cl)c2O1
Found: 90

Lookup: Proceed to CCOC[C@H]1CN(C(=O)c2cc(-n3cnc(C(C)(C)C)n3)cc3c2OCCO3)c2cccc(Cl)c2O1
Found: 60

Lookup: Proceed to Cc1ncn(-c2cccc(C(=O)N3C[C@H](C)Oc4c(Cl)cccc43)c2)n1
Found: 100

Lookup: Proceed to COc1ccc(-n2cnc(C(C)(C)O)n2)cc1C(=O)N1C[C@H](C)Oc2c(C)cccc21
Found: 90

Lookup: Proceed to Cc1cccc2c1O[C@@H](C)CN2C(=O)c1cccc(-n2nccn2)c1
Found: 0

Lookup: Proceed to CC(C)c1cc(C(=O)N2C[C@H](C)Oc3c(Cl)cccc32)cc(-n2cncn2)c1
Found: 90

Lookup: Proceed to COC[C@H]1CN(C(=O)c2cc(-n3cnc(C4CCC4)n3)cc3c2OCCO3)c2cccc(Cl)c2O1
Found: 80

Lookup: Proceed to Cc1cccc2c1OC(C(F)(F)F)CN2C(=O)c1ccnc(-n2cnc(C(C)C)n2)c1 (single isomer, unassigned)
Found: 90

Lookup: Proceed to CCOC[C@H]1CN(C(=O)c2cc(-n3cnc(C(C)(C)C)n3)ccc2C)c2cccc(Cl)c2O1
Found: 100

Lookup: Proceed to CCOc1ncn(-c2cccc(C(=O)N3C[C@H](C)Oc4c(Cl)cccc43)c2)n1
Found: 80

Lookup: Proceed to Cc1ncnn1-c1cc(C(=O)N2CC(C(F)(F)F)Oc3c(Cl)cccc32)ccn1 (racemic)
Found: 40

Lookup: Proceed to CCOC[C@H]1CN(C(=O)c2cc(-n3cnc(C(C)C)n3)cc3c2OCCO3)c2cccc(Cl)c2O1
Found: 90

---

# Test system: kochia
# Protocol Details: Test C preemergence
# Format: in vivo, Bassia scoparia
# Stated Conditions: 500 g ai/ha, preemergence; 0 to 100 scale (0 no effect, 100 complete control)
# if measured Kochia plant response rating < 90: 1  # else: 0

Lookup: Record C=C(C)c1cc(C(=O)N2C[C@H](C)Oc3c(Cl)cccc32)cc(-n2cncn2)c1 : is its Kochia plant response rating strictly below 90?
Found: 1

Lookup: Proceed to COC(C)c1ncn(-c2ccc(C)c(C(=O)N3CC(C)Oc4c(Cl)cccc43)c2)n1 (mixture of isomers)
Found: 0

Lookup: Proceed to CC(C)c1ncn(-c2cc(O)c(O)c(C(=O)N3C[C@H](C)Oc4c(Cl)cccc43)c2)n1
Found: 1

Lookup: Proceed to CC(C)(C)c1ncn(-c2cccc(C(=O)N3CC(C(F)(F)F)Oc4c(Cl)cccc43)c2)n1 (stereo not shown)
Found: 1

Lookup: Proceed to COC[C@H]1CN(C(=O)c2cc(-n3cnc(C(C)C)n3)cc3c2OCCO3)c2cccc(Cl)c2O1
Found: 0

Lookup: Proceed to Cc1cccc2c1O[C@@H](C)CN2C(=O)c1cccc(-n2cnc([N+](=O)[O-])n2)c1
Found: 1

Lookup: Proceed to CCOC[C@H]1CN(C(=O)c2cc(-n3cnc(C(C)C)n3)ccc2C)c2cccc(Cl)c2O1
Found: 0

Lookup: Proceed to Cc1nnc(-c2cccc(C(=O)N3C[C@H](C)Oc4c(Cl)cccc43)c2)o1
Found: 1

Lookup: Proceed to CCOCC1CN(C(=O)c2cc(-n3cnc(C(C)(C)C)n3)ccc2OC)c2cccc(Cl)c2O1 (stereo not shown)
Found: 0

Lookup: Proceed to CC(C)Oc1ncn(-c2cccc(C(=O)N3C[C@H](C)Oc4c(Cl)cccc43)c2)n1
Found: 1

---

# Test system: pigweed, palmer
# Protocol Details: Test A postemergence
# Type: in vivo, Amaranthus palmeri
# Stated Conditions: Amaranthus palmeri, post-emergence, 240 h, 500 g ai/ha, postemergence, 10 days, visual injury, 0 to 100 scale (0 no effect, 100 complete control); read-out: Plant response rating, Pigweed, Palmer
Reported Metric: pest or weed control at 500 g/ha (%)
Please state the figure in %; there is no need to write the unit.

Lookup: Which measured pest or weed control at 500 g/ha belongs to CCc1ncn(-c2ccc(OC)c(C(=O)N3C[C@H](C)Oc4c(Cl)cccc43)c2)n1 , tested on pigweed, palmer?
Found: 90

Lookup: Proceed to COCc1ncn(-c2cccc(C(=O)N3C[C@H](C)Oc4c(C)cccc43)c2)n1
Found: 60

Lookup: Proceed to Cc1ncn(-c2ccc(C)c(C(=O)N3C[C@H](C)Oc4c(Cl)cccc43)c2)n1 (single isomer, unassigned)
Found: 70

Lookup: Proceed to C[C@H]1CN(C(=S)c2cccc(-n3cncn3)c2)c2cccc(Cl)c2O1
Found: 80

Lookup: Proceed to Cc1cccc2c1O[C@@H](C)CN2C(=O)c1cccc(-n2cnc(C3COC3)n2)c1
Found: 60

---

# Tested on: ragweed
# Protocol Details: Test C postemergence
# Format: in vivo, Ambrosia artemisiifolia
# Stated Conditions: Postemergence, 125 g ai/ha; 0 to 100 scale (0 no effect, 100 complete control), 10 days
Provide the recorded Plant response rating, Ragweed for the entries that follow.
Please give the numeric answer without any surrounding text.

Lookup: Which measured Plant response rating, Ragweed belongs to Cc1ccc(-n2cnc(C(C)(C)C)n2)cc1C(=O)N1CC(C(F)(F)F)Oc2c(Cl)cccc21 (stereo not drawn) , tested on ragweed?
Found: 30

Lookup: Proceed to CC(C)c1ncn(-c2cc(C(=O)N3CC(C(F)(F)F)Oc4c(Cl)cccc43)ccn2)n1 (single isomer, unassigned)
Found: 30

Lookup: Proceed to Cc1ncn(-c2cc(C(=O)N3CC(C(F)(F)F)Oc4c(Cl)cccc43)ccn2)n1 (stereo not drawn)
Found: 30

Lookup: Proceed to COC[C@H]1CN(C(=O)c2cc(-n3cnc(C(C)C)n3)cc3c2OCCO3)c2cccc(Cl)c2O1
Found: 70

Lookup: Proceed to CC(C)c1ncn(-c2ccc(S(C)(=O)=O)c(C(=O)N3C[C@H](C)Oc4c(Cl)cccc43)c2)n1
Found: 60

Lookup: Proceed to COC[C@H]1CN(C(=O)c2cc(-n3cnc(C(C)(C)O)n3)ccc2OC)c2cccc(Cl)c2O1
Found: 50

Lookup: Proceed to COC[C@H]1CN(C(=O)c2cc(-n3cnc(C(C)C)n3)ccc2C)c2cccc(Cl)c2O1
Found: 60

Lookup: Proceed to Cc1ccc(-n2cncn2)cc1C(=O)N1CC(C(F)(F)F)Oc2c(Cl)cccc21 (stereo not drawn)
Found: 30

Lookup: Proceed to Cc1cccc2c1OC(C(F)(F)F)CN2C(=O)c1cccc(-n2cnc(C(C)C)n2)c1 (single isomer, unassigned) [Compound 303]
Found: 50

---

# Test system: barnyardgrass
# Protocol Details: Test C postemergence
# Type: in vivo, Echinochloa crusgalli
# Stated Conditions: 500 g ai/ha, postemergence, 10 days, 0 to 100 scale (0 no effect, 100 complete control)
Provide the recorded Plant response rating, Barnyardgrass for the entries that follow.
Please give the numeric answer without any surrounding text.

Lookup: For the molecule shown here, CCOCC1CN(C(=O)c2cc(-n3cnc(C4CCC4)n3)ccc2OC)c2cccc(Cl)c2O1 (stereo not shown) [Compound 377] , give the reported Plant response rating, Barnyardgrass.
Found: 50

Lookup: Proceed to Cc1ccc(-n2cnc(CC#N)n2)cc1C(=O)N1C[C@H](C)Oc2c(Cl)cccc21 [Compound 364]
Found: 80

Lookup: Proceed to COC(C)c1ncn(-c2ccc(C)c(C(=O)N3CC(C)Oc4c(Cl)cccc43)c2)n1 (mixture of isomers) [Compound 359]
Found: 90

Lookup: Proceed to CC(C)c1ncn(-c2ccc(S(C)(=O)=O)c(C(=O)N3C[C@H](C)Oc4c(Cl)cccc43)c2)n1 [Compound 393]
Found: 50

---

# Test system: wheat
# Protocol Details: Test C preemergence
# Format: in vivo, Triticum aestivum
# Stated Conditions: Preemergence, 500 g ai/ha; visual rating after 10 days, 0 to 100 scale (0 no effect, 100 complete control)
# class assignment by measured Plant response rating, Wheat: label 0: < 20; label 1: ≥ 20 and < 70; label 2: ≥ 70

Lookup: Band assignment needed for Cc1cccc2c1OC(C)CN2C(=O)c1cccc(-n2ncnc2C2CC2)c1 (racemic) please.
Found: label 0

Lookup: Proceed to Cc1ccc(-n2cnc(C(C)(F)F)n2)cc1C(=O)N1C[C@H](C)Oc2c(Cl)cccc21
Found: label 2

Lookup: Proceed to CC(C)c1ncn(-c2ccc(S(=O)(=O)C(F)(F)F)c(C(=O)N3C[C@H](C)Oc4c(Cl)cccc43)c2)n1
Found: label 0

Lookup: Proceed to COc1cc(-n2cnc(C(C)C)n2)cc(C(=O)N2C[C@H](C)Oc3c(Cl)cccc32)c1OC
Found: label 1

Lookup: Proceed to COC[C@H]1CN(C(=O)c2cc(-n3cnc(C4CC4)n3)ccc2OC)c2cccc(Cl)c2O1
Found: label 1

Lookup: Proceed to CCc1ncn(-c2ccc(OC)c(C(=O)N3C[C@H](C)Oc4c(C)cccc43)c2)n1
Found: label 2

Lookup: Proceed to CCc1ncn(-c2ccc(C)c(C(=O)N3CC(C(F)(F)F)Oc4c(Cl)cccc43)c2)n1 (single isomer, unassigned)
Found: label 2

Lookup: Proceed to CC(C)c1ncn(-c2cc3c(c(C(=O)N4C[C@H](C)Oc5c(Cl)cccc54)c2)OCO3)n1
Found: label 1

Lookup: Proceed to COC[C@H]1CN(C(=O)c2cc(-n3cnc(C4CCC4)n3)ccc2OC)c2cccc(Cl)c2O1
Found: label 0

Lookup: Proceed to Cc1cn(-c2cccc(C(=O)N3C[C@H](C)Oc4c(C)cccc43)c2)cn1
Found: label 0

Lookup: Proceed to CCc1ncn(-c2ccc(C)c(C(=O)N3C[C@H](COC)Oc4c(Cl)cccc43)c2)n1
Found: label 2

Lookup: Proceed to Cc1ccc(-n2cnc(C3(C)CCC3)n2)cc1C(=O)N1C[C@H](C)Oc2c(Cl)cccc21
Found: label 0

Lookup: Proceed to COc1ccc(-n2cncn2)cc1C(=O)N1C[C@H](C)Oc2ccccc21
Found: label 1

Lookup: Proceed to COc1cc(C(=O)N2C[C@H](C)Oc3c(Cl)cccc32)cc(-n2cnc(C3CCC3)n2)c1
Found: label 1

Lookup: Proceed to COc1ccc(-n2cncn2)cc1C(=O)N1C[C@H](C)Oc2c(Cl)cccc21
Found: label 2

Lookup: Proceed to CCc1ccc(-n2cnc(C(C)C)n2)cc1C(=O)N1C[C@H](C)Oc2c(C)cccc21
Found: label 2

Lookup: Proceed to Cc1cccc2c1O[C@H](C)CN2C(=O)c1cccc(-c2ncn(C(C)C)n2)c1
Found: label 0
